- assay system: UniProt P05186
- Sequence (P05186 18-524): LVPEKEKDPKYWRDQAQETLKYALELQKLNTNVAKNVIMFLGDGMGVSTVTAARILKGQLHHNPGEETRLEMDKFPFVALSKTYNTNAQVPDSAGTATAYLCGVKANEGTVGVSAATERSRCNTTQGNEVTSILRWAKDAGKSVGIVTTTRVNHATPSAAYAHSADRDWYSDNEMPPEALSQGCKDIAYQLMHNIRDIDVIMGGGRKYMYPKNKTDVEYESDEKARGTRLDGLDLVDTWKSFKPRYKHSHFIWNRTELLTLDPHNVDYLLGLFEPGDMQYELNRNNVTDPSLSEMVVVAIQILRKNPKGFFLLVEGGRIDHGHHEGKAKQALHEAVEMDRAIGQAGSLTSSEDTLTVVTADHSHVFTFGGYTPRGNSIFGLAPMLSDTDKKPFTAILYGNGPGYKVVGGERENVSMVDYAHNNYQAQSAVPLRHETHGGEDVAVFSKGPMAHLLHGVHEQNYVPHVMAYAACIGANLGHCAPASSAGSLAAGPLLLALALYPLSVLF
- run description: Alkaline phosphatase inhibition assay (h-TNAP), CDP-star luminescence
- Format: biochemical
- run parameters: IC50 ± SEM, n = 3; DEA buffer
I'd appreciate it if you could supply IC50 values for the items below.
The reply should contain only the number, in µM.

Consider the compound shown here: `COc1cc2c3c(c(=O)oc2cc1OS(=O)(=O)c1ccc(C(F)(F)F)cc1)CCCCCC3` What is its recorded IC50?
1.29

Field request: IC50 | item: `COc1cc2c3c(c(=O)oc2cc1OS(=O)(=O)c1ccccc1)CCCCCC3`
2.68

State the recorded IC50 for this entry: `COc1cc2c3c(c(=O)oc2cc1OS(=O)(=O)c1ccccc1)CCCCC3`
1.26

Please report the recorded IC50 for `O=c1oc2cc(OS(=O)(=O)c3ccccc3)ccc2c2c1CCCCC2` .
8.57

Find the recorded IC50 belonging to `CCS(=O)(=O)Oc1ccc2c3c(c(=O)oc2c1)CCCCCC3` and report it.
1.74

For the compound shown here, `CS(=O)(=O)Oc1ccc2c3c(c(=O)oc2c1)CCCCC3` , give the reported IC50.
0.48

What value of IC50 has been reported for the following compound? `COc1cc2c3c(c(=O)oc2cc1OS(C)(=O)=O)CCCCC3`
1.21

Given the compound `O=c1oc2cc(OS(=O)(=O)C3CC3)ccc2c2c1CCCCC2` , what is its reported IC50?
0.98

Recorded IC50 of `CCCS(=O)(=O)Oc1cc2oc(=O)c3c(c2cc1OC)CCCCCC3` , please.
2.6

For the compound `O=c1oc2cc(OS(=O)(=O)c3ccccc3)c(Cl)cc2c2c1CCCCC2` , what IC50 is on record?
5.73

So what does the record say about IC50 for `Cc1ccc(S(=O)(=O)Oc2cc3oc(=O)c4c(c3cc2Cl)CCCCC4)cc1` ?
2.22

I have this compound here, `O=c1oc2cc(OS(=O)(=O)c3ccccc3)ccc2c2c1CCCCCC2` , and I need its recorded IC50.
1.13

Which IC50 is reported for this compound? `O=c1oc2cc(OS(=O)(=O)c3ccc(F)cc3)ccc2c2c1CCCCC2`
1.06

* * *

Provide the recorded IC50 for the entries that follow.
- assay system: human intestinal alkaline phosphatase (h-IAP) (Homo sapiens, UniProt P09923)
- Sequence (P09923 20-528): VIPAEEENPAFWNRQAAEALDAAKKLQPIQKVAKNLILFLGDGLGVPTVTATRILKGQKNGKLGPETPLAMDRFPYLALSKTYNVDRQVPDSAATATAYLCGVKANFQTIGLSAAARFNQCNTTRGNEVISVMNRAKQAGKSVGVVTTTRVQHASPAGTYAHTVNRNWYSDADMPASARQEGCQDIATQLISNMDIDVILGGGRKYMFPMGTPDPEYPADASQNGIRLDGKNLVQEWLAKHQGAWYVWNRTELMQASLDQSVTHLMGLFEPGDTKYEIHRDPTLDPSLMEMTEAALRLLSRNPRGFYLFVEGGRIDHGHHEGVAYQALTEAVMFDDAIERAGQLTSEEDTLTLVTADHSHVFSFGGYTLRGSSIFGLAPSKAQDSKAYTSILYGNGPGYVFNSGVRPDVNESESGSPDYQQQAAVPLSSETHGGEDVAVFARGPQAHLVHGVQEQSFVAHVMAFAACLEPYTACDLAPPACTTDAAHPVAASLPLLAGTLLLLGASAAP
- run description: Alkaline phosphatase inhibition assay (h-IAP), CDP-star luminescence
- Type: biochemical
- run parameters: IC50 ± SEM, n = 3; DEA buffer
Express it in µM; write the number only.

# lookup: IC50 of N[C@@H](Cc1ccccc1)C(=O)O [L-Phenylalanine, reference compound]
100

Field request: IC50 | item: `COc1cc2c3c(c(=O)oc2cc1OS(=O)(=O)c1ccc(C)cc1)CCCCC3`
0.79

Record request: IC50 value, item `CS(=O)(=O)Oc1ccc2c3c(c(=O)oc2c1)CCCCC3`
1.98

Need IC50, item `CCCS(=O)(=O)Oc1ccc2c3c(c(=O)oc2c1)CCCCC3`
0.91

I'd like to know its IC50. The molecule in question is `COc1cc2c3c(c(=O)oc2cc1OS(C)(=O)=O)CCCCCC3`
1.51

Fill in: IC50 of `Cc1ccc(S(=O)(=O)Oc2ccc3c4c(c(=O)oc3c2)CCCCCC4)cc1` is ___
2.12

Reported IC50 for `CCS(=O)(=O)Oc1ccc2c3c(c(=O)oc2c1)CCCCC3` : what is it?
2.71

Entry `COc1cc2c3c(c(=O)oc2cc1OS(=O)(=O)c1ccccc1)CCCCC3` : reported IC50 = ?
3.88

# get_value(readout='IC50', item= `O=c1oc2cc(OS(=O)(=O)c3ccc(F)cc3)ccc2c2c1CCCCC2` )
0.45

Entry `CCCS(=O)(=O)Oc1ccc2c3c(c(=O)oc2c1)CCCCCC3` has what IC50?
3.37

Given the entry `COc1cc2c3c(c(=O)oc2cc1OS(=O)(=O)c1ccc(C(F)(F)F)cc1)CCCCCC3` , report its measured IC50.
1.63

Consider the molecule `O=c1oc2cc(OS(=O)(=O)c3ccccc3)ccc2c2c1CCCCC2` and give its measured IC50.
1.84

Find the recorded IC50 belonging to `COc1cc2c3c(c(=O)oc2cc1OS(=O)(=O)c1ccccc1)CCCCCC3` and report it.
0.83

# get_value(readout='IC50', item= `CCS(=O)(=O)Oc1ccc2c3c(c(=O)oc2c1)CCCCCC3` )
0.84

// returns reported IC50 for input `COc1cc2c3c(c(=O)oc2cc1OS(C)(=O)=O)CCCCC3`
11.8

* * *

Please respond with reported IC50 for every item in the list.
- assay system: human intestinal alkaline phosphatase (h-IAP) (Homo sapiens)
- run description: Alkaline phosphatase inhibition assay (h-IAP), CDP-star luminescence
- Assay type: biochemical
- run parameters: IC50 ± SEM, n = 3; DEA buffer

Form field: reported IC50 of `COc1cc2c3c(c(=O)oc2cc1OS(=O)(=O)c1ccc(C)cc1)CCCCCC3`
1.45 µM

Quick one: IC50 of `CCCS(=O)(=O)Oc1cc2oc(=O)c3c(c2cc1OC)CCCCC3` ?
> 100 µM

Any idea what IC50 was measured for `Cc1ccc(S(=O)(=O)Oc2cc3oc(=O)c4c(c3cc2Cl)CCCCC4)cc1` ?
1.11 µM

Which IC50 value belongs to `Cc1ccc(S(=O)(=O)Oc2ccc3c4c(c(=O)oc3c2)CCCCC4)cc1` ?
1.94 µM

# lookup: IC50 of `CCCS(=O)(=O)Oc1cc2oc(=O)c3c(c2cc1OC)CCCCCC3`
0.75 µM

// IC50 lookup, key: `O=c1oc2cc(OS(=O)(=O)C3CC3)ccc2c2c1CCCCC2`
0.96 µM

Data request, read-out IC50, for `O=c1oc2cc(OS(=O)(=O)c3ccccc3)ccc2c2c1CCCCCC2`
2.82 µM

* * *

I'd be grateful if you could share measured IC50 for these entries.
- assay system: human intestinal alkaline phosphatase (h-IAP) (Homo sapiens)
- run description: Alkaline phosphatase inhibition assay (h-IAP), CDP-star luminescence
- Format: biochemical
- run parameters: IC50 ± SEM, n = 3; DEA buffer

Provide the documented IC50 with human intestinal alkaline phosphatase (h-IAP) (Homo sapiens) as the system for `CS(=O)(=O)Oc1cc2oc(=O)c3c(c2cc1Cl)CCCCC3`
> 100 µM

What IC50 appears in the records for this compound with human intestinal alkaline phosphatase (h-IAP) (Homo sapiens)? `COc1cc2c3c(c(=O)oc2cc1OS(=O)(=O)c1ccc(C(F)(F)F)cc1)CCCCC3`
> 100 µM

For the record `O=c1oc2cc(OS(=O)(=O)c3ccccc3)c(Cl)cc2c2c1CCCCC2` , what value of IC50 is listed for human intestinal alkaline phosphatase (h-IAP) (Homo sapiens)?
> 100 µM
